Provenance of the data: patent US7314878B2

test: Assessment of the BBB passage: brain and plasma sampling; assay type: in vivo, Sprague Dawley rats; settings: male, Crl:CD(SD)Br Sprague Dawley, brain/plasma, iv; rat, i.v. 10 mg/kg, 1 h; read-out: Brain/Plasma ratio
measure: Kp at 1 h
Provide a numeric answer; units are not to be included.

Q: Given the entry CN1CCN(Cc2ccc(COc3nccc(C(C#N)c4nc5ccccc5s4)n3)cc2)CC1 (stereo not shown) [Example 1] , report its measured Kp at 1 h.
A: 0.34
